All figures here come from PubChem BioAssay (NCATS).

measurement target: Thyroid hormone receptor beta (Homo sapiens)
test: qHTS assay for small molecule antagonists of thyroid hormone receptor beta signaling (AID 588547);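 further: cells stimulated with 0.4 nM T3 agonist during compound exposure; on the % scale 0 is the no-effect control and ±100 the full control effect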
condition set: TR-UAS-bla HEK293, beta-lactamase ratio, antagonist mode, 18 h
Inconclusive results are not listed.
This listing pairs molecules with measured activity change % (negative = inhibition).
# output: bare number, implied unit %

1) CC(C)(C)[C@@H](O)/C(=C\c1ccc(Cl)cc1Cl)n1cncn1 | -11.6

Moving on to the next molecule.
**Q:** Look up activity change % (negative = inhibition) for this molecule: CCN(CC)C(=O)SCc1ccc(Cl)cc1
**A:** 12

* * *

test: qHTS assay for environmental chemicals that activate the Aryl hydrocarbon Receptor (AhR) signaling pathway (AID 651777); further: % of control where 0% means no effect; nearly all actives have a fitted effect of over 15% in size
condition set: 1A2-DRE human hepatoma cells, luciferase, 24 h; stronger effect = higher value
Results filed as inconclusive are left out.
This listing pairs compounds with measured activation.
# output: bare number, implied unit %

Worked examples, 5 compounds total:
1) CC(C)=CC1C(C(=O)OCc2coc(Cc3ccccc3)c2)C1(C)C (configuration not stated) | 3.96
2) CCOP(=O)(OCC)OP(=O)(OCC)OCC | -0.108
3) [CH3][Sn]([CH3])([Cl])[Cl] | -0.285
4) O=C=Nc1ccc(Cl)cc1 | 2.71
5) N#CCNC(=O)c1cnccc1C(F)(F)F | 1.26

**Q:** Look up activation for this compound: CCOP(=O)(SC(C)CC)N1CCSC1=O (configuration not stated)
**A:** -0.193

**Q:** Also check CN(C)c1nc(=O)n(C2CCCCC2)c(=O)n1C
**A:** 0.25

**Q:** Also check COC(=O)c1c(C(F)F)nc(C(F)(F)F)c(C2=NCCS2)c1CC(C)C
**A:** 2.1

* * *

This listing pairs compounds with measured activity change, negative = cytotoxicity.
test: Cell Viability - N2a (AID 540);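 further: cells exposed to compound for 40 h at 37 °C; plate controls were DMSO alone for no effect and tamoxifen control for full effect; nearly all actives have a fitted effect of over 45% in size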
condition set: N2a mouse neuroblastoma cell viability; at 92.2 µM (top of the series)
Results filed as inconclusive are left out.
# output: bare number, implied unit %

Worked examples, 2 compounds total:
1. C#CCO | -2.19
2. FC(F)(F)c1ccc(Cl)cc1 | 6.85

Moving on to the next compound.
**Q:** Look up activity change, negative = cytotoxicity for this compound: O=C(O)C1C(C(=O)O)C2(Cl)C(Cl)=C(Cl)C1(Cl)C2(Cl)Cl (stereo not drawn)
**A:** 14.3

* * *

Test system: SC27B
test: qHTS profiling for inhibitors of Plasmodium falciparum proliferation (AID 504749);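 further: 0% = DMSO vehicle and full inhibition = artemisinin control; nearly all actives have a fitted effect of over 60% in size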
condition set: P. falciparum in erythrocytes, SYBR Green DNA, 72 h; series mostly up to 28.7 µM
Results filed as inconclusive are left out. Calls of active or inactive are those of the source. Calls follow the shape of the dose curve; as a rule, active = well fitted inhibition curve with a large enough effect; inconclusive = small, poorly fitted or top-dose-only effect; inactive = flat fitted curve, though single readings scatter.
Allowed answers: Y (active), N (inactive)

**Q:** Which outcome did this test record for the molecule CCCC(C)C1(CC)C(=O)NC(=S)NC1=O (stereo not drawn) ?
**A:** N

**Q:** Also check CN(C)C1C(=O)C(C(N)=O)C(=O)C2(O)C(=O)C3C(=O)c4c(O)cccc4C(C)(O)C3C(O)C12 (stereo not drawn)
**A:** N

**Q:** Also check C#C[C@]1(O)CC[C@H]2[C@@H]3CCC4=CC(=O)CCC4(C)[C@H]3CCC21C (stereo partly drawn)
**A:** N

* * *

test: qHTS assay for cell viability of the p53RE-bla HCT-116 cell line (AID 743292); further: nearly all actives have a fitted effect of over 55% in size
condition set: p53RE-bla HCT-116 viability, ATP luminescence, 16 h; series mostly up to 95 µM
Inconclusive results are not listed. Active and inactive are the calls of the source. Calls follow the shape of the dose curve; as a rule, active = well fitted cell-killing curve with a large enough effect; inconclusive = small, poorly fitted or top-dose-only effect, or effect the other way; inactive = flat fitted curve, though single readings scatter.
Allowed answers: 1 for active, 0 for inactive

Check out these entries, answers already filled in.
1. CCNC(=O)NC(=O)/C(C#N)=N/OC | 0
2. CC[C@H](C)[C@H]1O[C@]2(C=C[C@@H]1C)C[C@@H]1C[C@@H](C/C=C(\C)[C@@H](O[C@H]3C[C@H](OC)[C@@H](O[C@H]4C[C@H](OC)[C@@H](NC)[C@H](C)O4)[C@H](C)O3)[C@@H](C)/C=C/C=C3\CO[C@@H]4[C@H](O)C(C)=C[C@@H](C(=O)O1)[C@]34O)O2 | 1

**Q:** Which outcome did this test record for the molecule CC(C1CC1)C(O)(Cn1cncn1)c1ccc(Cl)cc1 (stereo not drawn) ?
**A:** 0
